# ASSAYED_SYSTEM: T1, huCB1 nanodisc (CB1-ND) (human, UniProt P21554 99-414)
# T1 construct: The His-tagged CB1 is embedded in a POPC lipid nanodisc with MSP1D1 scaffold protein (molar ratio 480:8:1); also called huCB1-ND; #CB1-008
# T1 sequence (P21554 99-414 limits assumed): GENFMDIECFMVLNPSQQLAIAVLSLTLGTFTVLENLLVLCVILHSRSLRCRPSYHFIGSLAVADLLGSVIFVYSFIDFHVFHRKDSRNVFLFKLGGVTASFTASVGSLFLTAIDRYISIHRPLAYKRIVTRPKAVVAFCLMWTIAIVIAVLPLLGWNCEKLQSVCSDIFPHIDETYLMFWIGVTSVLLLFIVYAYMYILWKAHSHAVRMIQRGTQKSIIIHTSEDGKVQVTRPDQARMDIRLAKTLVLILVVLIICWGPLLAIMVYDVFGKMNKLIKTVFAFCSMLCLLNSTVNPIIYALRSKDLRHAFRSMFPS
# TEST_METHOD_NOTES: flow cytometry, yeast-displayed Fab, 0.2 nM CB1-ND, after background subtraction
Would you mind telling me the reported Relative binding fold change compared to LIBC528116 (Fab) of each entry?

Below, each entry is followed by its recorded Relative binding fold change compared to LIBC528116 (Fab) result.
LIBC680773-1 (yeast-displayed Fab) (Fab, V domains shown) VH: QVQLQESGPGLVKPSQTLSLTCTVSGGSIRRGGDYWAWIRQHPGKGLEWIGHVYYTGSTNYNPRFKDRATISVNTYKNQFSLKLSSVTAADTAVYYCARNYDTVTGYSYYYYGMDVWGQGTTVTVSS VL: DIQMTQSPSSLSASVGDRVTITCRASQSISSYLNWYQQKPGKAPKLLIYKARLLSSGVPSRFSGSGSGTDFTLTISSLQPEDFATYYCQQYSRLPLTFGGGTKVEIKR: 2.4 fold
LIBC680562-1 (yeast-displayed Fab) (Fab, V domains shown) VH: QVQLQESGPGLVKPSQTLSLTCTVSGGSIRRGGDYWAWIRQHPGKGLEWIGHIYQTGSTNYNPRFKGRATISVNTYKNQFSLKLSSVTAADTAVYYCARNYDTLTGYSYYYYGMDVWGQGTTVTVSS VL: DIQMTQSPSSLSASVGDRVTITCRASQSISSYLNWYQQKPGKAPKLLIYSARRLSSGVPSRFSGSGSGTDFTLTISSLQPEDFATYYCQQYAKSPITFGGGTKVEIKR: 3.34 fold

# input binder: LIBC681737-1 (yeast-displayed Fab) (Fab, V domains shown, Original yeast clone without the LC P12S germline reversion; Monovalent Fab on yeast) VH: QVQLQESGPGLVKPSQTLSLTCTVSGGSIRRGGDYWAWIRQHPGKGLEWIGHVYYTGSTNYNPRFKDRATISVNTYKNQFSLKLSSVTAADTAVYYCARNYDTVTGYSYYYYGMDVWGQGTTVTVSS VL: DIQMTQSPSSLPASVGDRVTITCRASQSISSYLNWYQQKPGKAPKLLIYSARRLASGVPSRFSGSGSGTDFTLTISSLQPEDFATYYCQQYYHPPITFGGGTKVEIKR ; wanted: its Relative binding fold change compared to LIBC528116 (Fab)
1.89 fold
